Origin of values: ChEMBL document CHEMBL1141179

These records show IC50 for Somatostatin receptor type 3 (Homo sapiens, UniProt P32745).

Guide cases for IC50, answers given:
# structure smiles, IC50
records = [
    ("C[C@@H](O)[C@@H]1NC(=O)[C@H](Cc2ccccc2)NC(=O)[C@H]([C@@H](C)O)NC(=O)[C@H](CCCCN)NC(=O)[C@@H](Cc2c[nH]c3ccccc23)NC(=O)[C@H](Cc2ccccc2)NC(=O)[C@H](Cc2ccccc2)NC(=O)[C@H](CC(N)=O)NC(=O)[C@@H](N)CSSC[C@@H](C(=O)O)NC1=O", "11 nM"),
    ("NCCCC[C@@H]1NC(=O)[C@@H](Cc2c[nH]c3ccccc23)NC(=O)[C@H](Cc2ccccc2)NC(=O)[C@H](Cc2ccccc2)NC(=O)[C@@H](N)CSSC[C@@H](C(=O)O)NC(=O)[C@H](Cc2ccccc2)NC1=O", "905 nM"),
    ("CC(C)NCc1ccc(C[C@@H]2NC(=O)[C@@H](Cc3c[nH]c4ccccc34)NC(=O)[C@@H]3CCC(=O)NCC[C@H](NC(=O)[C@H](Cc4ccccc4)NC(=O)[C@H]([C@@H](C)O)NC2=O)C(=O)N[C@@H](CO)C(=O)N[C@H](C(=O)O)CSSC[C@H](NC(=O)[C@@H](N)Cc2ccc(O)cc2)C(=O)N[C@@H](CCCCN)C(=O)N[C@@H](Cc2ccccc2)C(=O)N3)cc1", "> 1000 nM"),
]

Proceed to the following item.
Task item: Give measured IC50 for C[C@@H](O)[C@@H]1NC(=O)[C@H](Cc2ccccc2)NC(=O)[C@H]([C@@H](C)O)NC(=O)[C@H](CCCCN)NC(=O)[C@@H](Cc2c[nH]c3ccccc23)NC(=O)[C@H](Cc2ccccc2)NC(=O)[C@H](Cc2ccccc2)NC(=O)[C@@H](N)CSSC[C@@H](C(=O)O)NC1=O (Somatostatin receptor type 3 (Homo sapiens, UniProt P32745)).
Reply: 52 nM

----------
Target: Somatostatin receptor type 2 (Homo sapiens, UniProt P30874)
Sequence (P30874 whole entry): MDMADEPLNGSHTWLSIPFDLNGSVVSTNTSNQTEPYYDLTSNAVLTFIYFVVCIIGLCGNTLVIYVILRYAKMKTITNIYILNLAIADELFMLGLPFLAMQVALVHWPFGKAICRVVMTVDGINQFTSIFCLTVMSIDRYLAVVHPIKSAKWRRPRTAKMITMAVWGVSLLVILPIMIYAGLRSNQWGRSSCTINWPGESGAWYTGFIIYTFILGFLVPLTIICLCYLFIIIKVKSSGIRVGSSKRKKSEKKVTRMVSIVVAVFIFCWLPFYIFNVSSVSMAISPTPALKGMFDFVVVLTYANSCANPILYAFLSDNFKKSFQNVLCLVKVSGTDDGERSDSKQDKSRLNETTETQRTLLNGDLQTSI
Collected IC50 values appear next to each entry.

Some solved cases for reference:
# structure smiles, assayed system, IC50
records = [
    ("CC(C)NCc1ccc(C[C@@H]2NC(=O)[C@@H](Cc3c[nH]c4ccccc34)NC(=O)[C@@H]3CC(=O)NCCC[C@H](NC(=O)[C@H](Cc4ccccc4)NC(=O)[C@H]([C@@H](C)O)NC2=O)C(=O)N[C@@H](CO)C(=O)N[C@H](C(=O)O)CSSC[C@H](NC(=O)[C@@H](N)Cc2ccc(O)cc2)C(=O)N[C@@H](CCCCN)C(=O)N[C@@H](Cc2ccccc2)C(=O)N3)cc1", "Somatostatin receptor type 2 (Homo sapiens, UniProt P30874)", "> 1 µM"),
    ("CC(C)NCc1ccc(C[C@@H]2NC(=O)[C@@H](Cc3c[nH]c4ccccc34)NC(=O)[C@@H]3CCC(=O)NCC(=O)NCC[C@H](NC(=O)[C@H](Cc4ccccc4)NC(=O)[C@H]([C@@H](C)O)NC2=O)C(=O)N[C@@H](CO)C(=O)N[C@H](C(=O)O)CSSC[C@H](NC(=O)[C@@H](N)Cc2ccc(O)cc2)C(=O)N[C@@H](CCCCN)C(=O)N[C@@H](Cc2ccccc2)C(=O)N3)cc1", "Somatostatin receptor type 2 (Homo sapiens, UniProt P30874)", "> 1 µM"),
]

Could you now consider this next compound?
Task item: Read off the recorded IC50 for CC(C)NCc1ccc(C[C@@H]2NC(=O)[C@@H](Cc3c[nH]c4ccccc34)NC(=O)[C@@H]3CC(=O)NC[C@H](NC(=O)[C@H](Cc4ccccc4)NC(=O)[C@H]([C@@H](C)O)NC2=O)C(=O)N[C@@H](CO)C(=O)N[C@H](C(=O)O)CSSC[C@H](NC(=O)[C@@H](N)Cc2ccc(O)cc2)C(=O)N[C@@H](CCCCN)C(=O)N[C@@H](Cc2ccccc2)C(=O)N3)cc1
Reply: > 1 µM
